Tested on: Rh18 complex spheroid viability, percent test/control
Assay: Anticancer human tumor Rh18 cell line growth inhibition [Asc];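 also: spheroids exposed to compound for 7 days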
Conditions: second compound 0.3 µM; first compound 0.316 µM; active compounds read low
Cut-off 10% on viability, T/C: below means Satisfied, at or above means Not satisfied.

Input line: Given the entry O=C(c1cc(Cc2n[nH]c(=O)c3ccccc23)ccc1F)N1CCN(C(=O)C2CC2)CC1 + CCN1C(C(=O)NC23CCC(C(=O)O)(CC2)CC3)C(c2cccc(Cl)c2F)C2(C(=O)Nc3cc(Cl)ccc32)C12CCCCC2 , would its reported viability, T/C be below 10%?
Output line: Not satisfied

Input line: Lab log: compare recorded viability, T/C with 10%; is it strictly lower for C=C(F)C(=O)N1CCN(c2nc(OCC3CCCN3C)nc3c2CCN(c2cccc4cccc(Cl)c24)C3)CC1CC#N (stereo not drawn) + CCN1C(C(=O)NC23CCC(C(=O)O)(CC2)CC3)C(c2cccc(Cl)c2F)C2(C(=O)Nc3cc(Cl)ccc32)C12CCCCC2 ?
Output line: Satisfied

Input line: viability, T/C strictly < 10% for this compound? C#Cc1c(F)ccc2cc(O)cc(-c3ncc4c(N5CC6CCC(C5)N6)nc(OCC56CCCN5CC(F)C6)nc4c3F)c12 (stereo not drawn) + CCN1C(C(=O)NC23CCC(C(=O)O)(CC2)CC3)C(c2cccc(Cl)c2F)C2(C(=O)Nc3cc(Cl)ccc32)C12CCCCC2
Output line: Not satisfied

Input line: Does the reported viability, T/C of COc1c(OCCCN2CCOCC2)ccc2c3n(c(=NC(=O)c4cnc(N)nc4)nc12)CCN3 + CCN1C(C(=O)NC23CCC(C(=O)O)(CC2)CC3)C(c2cccc(Cl)c2F)C2(C(=O)Nc3cc(Cl)ccc32)C12CCCCC2 stay below 10%?
Output line: Satisfied

Input line: Here's an entry: CNC(C)C(=O)NC1CN(S(=O)(=O)c2cccc(S(=O)(=O)N3CCC4CCC(C(=O)NC(c5ccccc5)c5ccccc5)N4C(=O)C(NC(=O)C(C)NC)C3)c2)CCC2CCC(C(=O)NC(c3ccccc3)c3ccccc3)N2C1=O (stereo not drawn) + CCN1C(C(=O)NC23CCC(C(=O)O)(CC2)CC3)C(c2cccc(Cl)c2F)C2(C(=O)Nc3cc(Cl)ccc32)C12CCCCC2 . Is its viability, T/C below 10%?
Output line: Satisfied

Input line: Consider the compound C=CC(=O)N1CCN(c2nc(=O)n(-c3c(C)ccnc3C(C)C)c3nc(-c4c(O)cccc4F)c(F)cc23)C(C)C1 (stereo not drawn) + CCN1C(C(=O)NC23CCC(C(=O)O)(CC2)CC3)C(c2cccc(Cl)c2F)C2(C(=O)Nc3cc(Cl)ccc32)C12CCCCC2 . Is its viability, T/C strictly less than 10%?
Output line: Not satisfied

Input line: Please state whether viability, T/C is below 10% for O=C(c1ccc(F)c(F)c1Nc1ccc(I)cc1F)N1CC(O)([C@@H]2CCCCN2)C1 + CCN1C(C(=O)NC23CCC(C(=O)O)(CC2)CC3)C(c2cccc(Cl)c2F)C2(C(=O)Nc3cc(Cl)ccc32)C12CCCCC2
Output line: Satisfied

Input line: is_below(viability, T/C, 10%) for CCN1CCN(Cc2ccc(Nc3ncc(F)c(-c4cc(F)c5nc(C)n(C(C)C)c5c4)n3)nc2)CC1 + CCN1C(C(=O)NC23CCC(C(=O)O)(CC2)CC3)C(c2cccc(Cl)c2F)C2(C(=O)Nc3cc(Cl)ccc32)C12CCCCC2 ?
Output line: Not satisfied

// provenance: PubChem BioAssay AID1963431
